- test-method-notes: Solid stability test of crystal forms (high temperature, high humidity, light radiation, accelerated conditions; appearance, content, impurities, crystal form by XRPD)
- Assay type: physicochemical
- condition-context: Day 0 (initial)
- Source text: High Performance Liquid Chromatograph (HPLC) The analytic method is as follows: [table] [table] […] The sample was placed under high temperature, high humidity and acceleration conditions. The bottle was sealed with an aluminum foil, and some small holes were pierced on the aluminum foil to ensure that the sample could fully contact with the ambient air. The sample placed under light radiation was placed upright at room temperature and open to the air. […]

compound	Appearance
O=C(O)[C@H]1C2CCC(CC2)[C@@H]1Nc1nc(-c2n[nH]c3ncc(F)cc23)nc(C2CC2)c1F (single isomer, unassigned) [crystal form A]	Off-white solid
O=C(O)[C@H]1C2CCC(CC2)[C@@H]1Nc1nc(-c2n[nH]c3ncc(F)cc23)nc(C2CC2)c1F [crystal form F]	Off-white solid
O=C(O)[C@H]1C2CCC(CC2)[C@@H]1Nc1nc(-c2n[nH]c3ncc(F)cc23)nc(C2CC2)c1F [crystal form G]	Off-white solid
